Quick reference for clearance among some molecules
# test.summary: Total body clearance in human
# condition.details: in vivo
Write the value in mL/min/kg as a bare number.

Worked set:
O=C(NCCNCC(O)COc1ccc(O)cc1)N1CCOCC1 (stereo not drawn) | 3
CCCCC/C=C\CCC(=O)N[C@H]1[C@H](Oc2c3cc4cc2Oc2ccc(cc2Cl)[C@@H](O[C@@H]2O[C@H](CO)[C@@H](O)[C@H](O)[C@H]2NC(C)=O)[C@@H]2NC(=O)[C@H](NC(=O)[C@@H]4NC(=O)[C@H]4NC(=O)[C@@H](Cc5ccc(c(Cl)c5)O3)NC(=O)[C@H](N)c3ccc(O)c(c3)Oc3cc(O)cc4c3)c3ccc(O)c(c3)-c3c(O[C@H]4O[C@H](CO)[C@@H](O)[C@H](O)[C@@H]4O)cc(O)cc3[C@@H](C(=O)O)NC2=O)O[C@H](CO)[C@@H](O)[C@@H]1O | 0.17

Turning now to a further record.
Fill in: clearance of CC(C)NCC(O)c1ccc(NS(C)(=O)=O)cc1 (stereo not drawn) is ___ 2

----------
# test.summary: Total body clearance in human
# condition.details: in vivo
Quick reference for clearance among some molecules
Write the value in mL/min/kg as a bare number.

Fill in: clearance of CN1C(=O)C(O)N=C(c2ccccc2Cl)c2cc(Cl)ccc21 (stereo not drawn) [LORMETAZEPAM] is ___ 4

Would you mind doing CCC1=C[C@@H]2CN(C1)Cc1c([nH]c3ccccc13)[C@@](C(=O)OC)(c1cc3c(cc1OC)N(C)[C@H]1[C@@](O)(C(=O)OC)[C@H](OC(C)=O)[C@]4(CC)C=CCN5CC[C@]31[C@@H]54)C2 [VINORELBINE] as well? 20

Would you mind doing COc1ccc([C@]2(C#N)CC[C@@H](C(=O)O)CC2)cc1OC1CCCC1 [CILOMILAST] as well? 0.5

Would you mind doing O=P1(N(CCCl)CCCl)NCCCO1 (stereo not drawn) [CYCLOPHOSPHAMIDE ANHYDROUS] as well? 1.1

Would you mind doing CO[C@H]1/C=C/O[C@@]2(C)Oc3c(C)c(O)c4c(O)c(c(/C=N/N5CCN(C)CC5)c(O)c4c3C2=O)NC(=O)/C(C)=C\C=C\[C@H](C)[C@H](O)[C@@H](C)[C@@H](O)[C@@H](C)[C@H](OC(C)=O)[C@@H]1C [RIFAMPIN] as well? 1.5

Would you mind doing CCC1=C(C)CN(C(=O)NCCc2ccc(S(=O)(=O)NC(=O)N[C@H]3CC[C@H](C)CC3)cc2)C1=O [GLIMEPIRIDE] as well? 0.5

Would you mind doing O=C(NCCN1CCOCC1)c1ccc(Cl)cc1 [MOCLOBEMIDE] as well? 10

----------
# test.summary: clinical
# condition.details: human, in vivo
outcome.measure: log10 of CL renal (log10 of the value in mL/min/kg)
Values are log10 of CL renal in mL/min/kg.

Fill in: log10 of CL renal of "O=c1[nH]c2ccccc2n1CCCN1CCC(n2c(=O)[nH]c3cc(Cl)ccc32)CC1" is ___ -1.40

Would you mind doing "N=C(N)c1ccc(CNC(=O)[C@@H]2CCN2C(=O)[C@H](NCC(=O)O)C2CCCCC2)cc1" as well? 0.20

Would you mind doing "O=C1CN=C(c2ccccc2Cl)c2cc([N+](=O)[O-])ccc2N1" as well? -2.00

----------
Quick reference for log10(CL renal) among some compounds
# test.summary: clinical
# condition.details: human, in vivo
Values are log10 of CL renal in mL/min/kg.

CCOC(=O)Nc1ccc(NCc2ccc(F)cc2)nc1N [FLUPIRTINE] | -0.57

Fill in: log10(CL renal) of c1ccc(C2(N3CCCCC3)CCCCC2)cc1 [PHENCYCLIDINE] is ___ -0.09

Would you mind doing C=CCc1ccccc1OCC(O)CNC(C)C (configuration not stated) [ALPRENOLOL] as well? -0.22

Would you mind doing C[C@H]1c2cccc(O)c2C(=O)C2=C(O)[C@]3(O)C(=O)C(C(N)=O)=C(O)[C@@H](N(C)C)[C@@H]3[C@@H](O)[C@@H]21.O [DOXYCYCLINE] as well? -0.72

Would you mind doing CC(=O)O[C@@]12CO[C@@H]1C[C@H](O)[C@@]1(C)C(=O)[C@H](O)C3=C(C)[C@@H](OC(=O)[C@H](O)[C@@H](NC(=O)OC(C)(C)C)c4ccccc4)C[C@@](O)([C@@H](OC(=O)c4ccccc4)[C@H]21)C3(C)C.O.O.O [DOCETAXEL] as well? -0.54

Would you mind doing CCCC1O[C@@H]2C[C@H]3[C@@H]4CCC5=CC(=O)C=C[C@]5(C)[C@H]4[C@@H](O)C[C@]3(C)[C@]2(C(=O)CO)O1 (some centres not stated) [BUDESONIDE] as well? 0.00

Would you mind doing CCN1CCCC1CNC(=O)c1cc(S(=O)(=O)CC)c(N)cc1OC (configuration not stated) [AMISULPRIDE] as well? 0.64

----------
Quick reference for CL renal among some compounds
# test.summary: clinical
# condition.details: human, in vivo
Write the value in mL/min/kg as a bare number.

Worked set:
CC(CC(c1ccccc1)c1ccccc1)NC(C)(C)C (centres undefined) [TERODILINE] | 0.14
CN(Cc1cnc2nc(N)nc(N)c2n1)c1ccc(C(=O)N[C@@H](CCC(=O)O)C(=O)O)cc1 [METHOTREXATE] | 1.7
N[C@@H](C(=O)N[C@@H]1C(=O)N2C(C(=O)O)=C(CSc3c[nH]nn3)CS[C@H]12)c1ccc(O)cc1 [CEFATRIZINE] | 2.64

Fill in: CL renal of CCN1CCC[C@H]1CNC(=O)c1c(OC)ccc(Br)c1OC [REMOXIPRIDE] is ___ 0.44

----------
# test.summary: clinical
# condition.details: human, in vivo
Please note: CL renal exactly at 2 mL/min/kg is not satisfied. Only values below 2 mL/min/kg get satisfied.

Look over these answered cases.
CC1(C)S[C@@H]2[C@H](NC(=O)[C@H](NC(=O)N3CCN(S(C)(=O)=O)C3=O)c3ccccc3)C(=O)N2[C@H]1C(=O)O | not satisfied
CC(=O)[C@]1(O)Cc2c(O)c3c(c(O)c2[C@@H](O[C@H]2C[C@H](N)[C@H](O)[C@H](C)O2)C1)C(=O)c1ccccc1C3=O | satisfied
CC[C@@]1(O)C(=O)OCc2c1cc1n(c2=O)Cc2cc3c(CN(C)C)c(O)ccc3nc2-1 | not satisfied
CCOc1ccc2ccccc2c1C(=O)N[C@@H]1C(=O)N2[C@@H]1SC(C)(C)[C@@H]2C(=O)O | satisfied
CC(=O)N[C@H]1[C@H]([C@H](O)[C@H](O)CO)OC(C(=O)O)=C[C@@H]1N=C(N)N | satisfied

Does this compound meet the criterion CL renal < 2 mL/min/kg? "COc1cc2c3cc1Oc1cc(ccc1O)C[C@@H]1c4c(cc(OC)c(O)c4Oc4ccc(cc4)C[C@@H]3N(C)CC2)CC[N+]1(C)C.[Cl-]" not satisfied

Would you mind doing CC1CCCC(C)N1CCCC(O)(c1ccccc1)c1ccccn1 (configuration not stated) as well? satisfied

----------
# test.summary: clinical
# condition.details: human, in vivo
Quick reference for CL renal among some compounds
Write the value in mL/min/kg as a bare number.

Worked set:
C#CCN(C)[C@H](C)Cc1ccccc1 | 0.2
Cc1cccc(N2CC(CO)OC2=O)c1 (configuration not stated) | 0.11
CC(C)(O/N=C(\C(=O)N[C@@H]1C(=O)N2C(C(=O)[O-])=C(C[n+]3ccccc3)CS[C@H]12)c1csc(N)n1)C(=O)O | 2.13
O=[N+]([O-])O[C@@H]1CO[C@H]2[C@@H]1OC[C@@H]2O [ISOSORBIDE MONONITRATE] | 0.1
Cc1[nH]c(=O)c(C#N)cc1-c1ccncc1 | 5

Fill in: CL renal of "CCCCc1nc(Cl)c(CO)n1Cc1ccc(-c2ccccc2-c2nn[nH]n2)cc1" is ___ 0.9

Would you mind doing "COc1ccc2c3c1O[C@H]1[C@@H](O)C=C[C@H]4[C@@H](C2)N(C)CC[C@@]341" as well? 1.7

Would you mind doing CN1C(=O)NC(=O)C(C)(C2=CCCCC2)C1=O (configuration not stated) [HEXOBARBITAL] as well? 0.02

Would you mind doing "CN(C)[C@@H]1C(O)=C(C(N)=O)C(=O)[C@@]2(O)C(O)=C3C(=O)c4c(O)cccc4[C@@](C)(O)[C@H]3[C@H](O)[C@@H]12" as well? 1.4

Would you mind doing CN1CCN2c3ncccc3Cc3ccccc3C2C1 (configuration not stated) as well? 0.32

Would you mind doing "C[C@@H]1C[C@H]2[C@@H]3CCC4=CC(=O)C=C[C@]4(C)[C@@]3(F)[C@@H](O)C[C@]2(C)[C@@]1(O)C(=O)CO" as well? 0.09

Would you mind doing COc1cccc2c1C(=O)c1c(O)c3c(c(O)c1C2=O)C[C@@](O)(C(=O)CO)C[C@@H]3O[C@H]1C[C@H](N)[C@@H](O)[C@H](C)O1 [EPIRUBICIN] as well? 2.44

Would you mind doing "C[C@H](N[C@@H](CCc1ccccc1)C(=O)O)C(=O)N1Cc2ccccc2C[C@H]1C(=O)O" as well? 0.9

Would you mind doing "NC12CC3CC(CC(C3)C1)C2" as well? 4.8

Would you mind doing "CN(C)CCc1c[nH]c2ccc(Cn3cncn3)cc12" as well? 5.32

Would you mind doing "CC(=O)NC[C@H]1CN(c2ccc(N3CCOCC3)c(F)c2)C(=O)O1" as well? 0.6

Would you mind doing "O=c1[nH]cc(F)c(=O)[nH]1" as well? 1.1
